- Assay Target: T1, Human CD27 ECD truncated (ECD 1-121, cleavage site, His6) (human)
- T1 construct: also called human CD27 ECD with His Tag; CD27-His
- T1 chain: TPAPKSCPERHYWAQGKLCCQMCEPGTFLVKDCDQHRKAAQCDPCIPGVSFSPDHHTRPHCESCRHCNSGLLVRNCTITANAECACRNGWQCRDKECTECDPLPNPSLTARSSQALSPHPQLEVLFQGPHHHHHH
- Protocol: ProteOn SPR, culture supernatants
Measured Attribute: fold decrease in KD against the parental mAb M159 (fold)
Write down the numeric answer in fold and omit the unit.

The measured fold decrease in KD against the parental mAb M159 associated with M166 (antibody, human IgG4, V domains shown, also called H196,L217) VH: QVQLVQSGAEVKKPGASVKVSCKASGYAFSSSWMNWVRQAPGQGLEWMGRIYSGDGDTNYNGKFKGRVTMTRDTSTSTVYMELSSLRSEDTAVYYCARSDYYGDYGFAYWGQGTLVTVSS VL: DIQMTQSPSSLSASVGDRVTITCKASQSVDYAHESFMNWYQQKPGKAPKLLIYAASNLESGVPSRFSGSGSGTDFTLTISSLQPEDFATYYCQQSNEDPYTFGQGTKVEIK reads 20

The measured fold decrease in KD against the parental mAb M159 associated with M155 (antibody, human IgG4, V domains shown, also called H25,L217) VH: QVQLVQSGAEVKKPGASVKVSCKASGYAFSSSWMNWVRQAPGQGLEWMGRIYPGDGDTNYNGKFKGRVTMTRDTSTSTVYMELSSLRSEDTAVYYCARSDYYGDYGFAYWGQGTLVTVSS VL: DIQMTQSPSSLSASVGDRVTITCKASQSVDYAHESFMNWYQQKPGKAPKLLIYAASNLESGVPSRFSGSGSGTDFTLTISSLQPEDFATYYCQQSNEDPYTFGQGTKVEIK reads 6

The measured fold decrease in KD against the parental mAb M159 associated with M158 (antibody, human IgG4, V domains shown, also called H196,L220) VH: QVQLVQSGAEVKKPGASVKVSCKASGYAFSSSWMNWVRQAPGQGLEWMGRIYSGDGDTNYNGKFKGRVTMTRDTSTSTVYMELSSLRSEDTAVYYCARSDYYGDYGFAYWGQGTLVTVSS VL: DIQMTQSPSSLSASVGDRVTITCKASQSVDYAGDSYMNWYQQKPGKAPKLLIYAASNLESGVPSRFSGSGSGTDFTLTISSLQPEDFATYYCQQSNEDPYTFGQGTKVEIK reads 6
